Experimental system: human JAK3 (a.a. 781-1124) (Homo sapiens, UniProt P52333)
Construct: JAK3 (a.a. 781-1124); His tag (N); made in house; host or cells: insect cells (baculovirus)
Sequence (P52333 781-1124): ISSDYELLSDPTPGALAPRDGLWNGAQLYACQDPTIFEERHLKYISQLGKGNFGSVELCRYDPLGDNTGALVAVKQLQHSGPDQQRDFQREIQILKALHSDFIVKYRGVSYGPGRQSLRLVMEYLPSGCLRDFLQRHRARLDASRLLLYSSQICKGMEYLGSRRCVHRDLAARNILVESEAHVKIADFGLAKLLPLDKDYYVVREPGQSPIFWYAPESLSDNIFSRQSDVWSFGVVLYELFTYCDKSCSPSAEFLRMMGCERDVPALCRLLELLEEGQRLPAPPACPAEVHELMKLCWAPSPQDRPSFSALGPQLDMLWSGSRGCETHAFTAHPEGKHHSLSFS
Assay method text: In vitro JAK kinase assay (HTRF, phosphorylation of a biotinylated peptide), JAK3
Assay type: biochemical
Experimental conditions: Table B1
Where a name gives a salt, the structure may show the parent alone.
Readout type: IC50

Lookup: Please give the documented IC50 of O=C(Nc1ccc2cc1CCc1cncc(c1)Nc1ncc(Cl)c(n1)N2)N[C@H]1CCN(C(=O)c2cc(C3CC3)on2)C1 [Example B270, bis(trifluoroacetate)]
Found: > 10000 nM

Lookup: Output measured IC50 for this item: Cn1ccc(C(=O)N2CC[C@H](NC(=O)Nc3ccc4cc3CCc3cccc(c3)Nc3ncc(Cl)c(n3)N4)C2)n1 [Example B232, bis(trifluoroacetate)]
Found: 72 nM

Lookup: Please give the documented IC50 of Cn1cncc1C(=O)Nc1ccc2cc1CCc1cccc(c1)Nc1ncc(Cl)c(n1)N2 [Example B51, bis(trifluoroacetate)]
Found: 4.7 nM

Lookup: Give the value of IC50 reported for the following: CC(=O)N1CCC(CN(C)Cc2ccc3cc2CCc2cncc(c2)Nc2ncc(Cl)c(n2)N3)CC1 [Example B346, tris(trifluoroacetate)]
Found: > 400 nM

Lookup: Tell me IC50 reported for COc1cccc(CN2CCN(Cc3cc4cc(c3)Nc3nc(ncc3Cl)Nc3cccc(c3)CC4)CC2)c1 [Example B198, tris(trifluoroacetate)]
Found: 161 nM

Lookup: Quick one: give measured IC50 for O=C(Nc1ccccc1)Nc1ccc2cc1CCc1cccc(c1)Nc1ncc(Cl)c(n1)N2 [Example B83, trifluoroacetate]
Found: 27 nM

Lookup: Fill in IC50 for record `CC(C)(C)OC(=O)N1CCN(CCNC(=O)Nc2ccc3cc2CCc2cccc(c2)Nc2ncc(Cl)c(n2)N3)CC1`
Found: 52 nM

Lookup: Return the recorded IC50 value; entry: CN(Cc1ccc2cc1CCc1cncc(c1)Nc1ncc(Cl)c(n1)N2)CC1CCN(C(=O)c2ccno2)CC1 [Example B345, tris(trifluoroacetate)]
Found: > 400 nM

Lookup: Name the recorded IC50 of the molecule listed here: O=C(Nc1ccc2cc1CCc1cncc(c1)Nc1ncc(Cl)c(n1)N2)N1CCN(c2ccc(F)cc2)CC1 [Example B297, tris(trifluoroacetate)]
Found: > 400 nM

====

Experimental system: human JAK3 (a.a. 781-1124) (Homo sapiens)
Construct: JAK3 (a.a. 781-1124); His tag (N); made in house; host or cells: insect cells (baculovirus)
Assay method text: In vitro JAK kinase assay (HTRF, phosphorylation of a biotinylated peptide), JAK3
Type: biochemical
Counter-ions that a name gives are not always drawn.
Readout type: IC50

Lookup: Quickly give me recorded IC50 for `O=C(c1ccccc1)N1Cc2cccc(c2)Nc2ncc(Cl)c(n2)Nc2cccc1c2`
Found: > 400 nM

Lookup: Kindly indicate its recorded IC50. Item: Clc1cnc2nc1Nc1ccc(OCC3CCNC3)c(c1)CCc1cncc(c1)N2 (stereo not shown) [Example C55, trihydrochloride]
Found: > 400 nM

Lookup: Look up and report measured IC50 for this entry: CC(=O)N1CCC(COc2ccc3cc2CCc2cncc(c2)Nc2ncc(Cl)c(n2)N3)C1 (stereo not shown) [Example C56, bis(trifluoroacetate)]
Found: > 400 nM

Lookup: Item Cc1cc(C(=O)N2CCC(CC(=O)Nc3ccc4cc3CCc3cccc(c3)Nc3ncc(F)c(n3)N4)CC2)no1 [Example C52, trifluoroacetate] : provide IC50
Found: > 200 nM

Lookup: Answer with reported IC50 of Cc1cc(C(=O)N2CCC(COc3ccc4cc3CCc3cncc(c3)Nc3ncc(Cl)c(n3)N4)C2)no1 (stereo not shown) [Example C58, bis(trifluoroacetate)]
Found: > 400 nM

Lookup: Tell me measured IC50 for O=C(Nc1ccccc1)N1CCC(COc2ccc3cc2CCc2cncc(c2)Nc2ncc(Cl)c(n2)N3)C1 (stereo not shown) [Example C59, bis(trifluoroacetate)] please.
Found: > 400 nM

Lookup: Give IC50 for the following compound: Cc1cnc2nc1Nc1ccc(N)c(c1)CCc1cncc(c1)N2 [Example C50, tris(trifluoroacetate)]
Found: > 400 nM

Lookup: Dear colleague, please send me the reported IC50 for O=C(Cc1c[nH]c2ccccc12)Nc1ccc2cc1CCc1cccc(c1)Nc1ncc(Cl)c(n1)N2 [Example C29, bis(trifluoroacetate)] when you can.
Found: 1030 nM

Lookup: Hello, please tell me recorded IC50 for this one: Cc1cc(C(=O)N2CCC(CC(=O)Nc3ccc4cc3CCc3cncc(c3)Nc3ncc(F)c(n3)N4)CC2)no1 [Example C49, trifluoroacetate]
Found: > 400 nM

Lookup: Please report the measured IC50 for Cc1cc(CC(=O)Nc2ccc3cc2CCc2cccc(c2)Nc2ncc(Cl)c(n2)N3)on1 [Example C30, trifluoroacetate]
Found: 990 nM

====

Experimental system: human JAK1 (a.a. 837-1142) (Homo sapiens)
Construct: human JAK1 (a.a. 837-1142); His tag (N); made in house; host or cells: insect cells (baculovirus)
Sequence (P23458 849-1154): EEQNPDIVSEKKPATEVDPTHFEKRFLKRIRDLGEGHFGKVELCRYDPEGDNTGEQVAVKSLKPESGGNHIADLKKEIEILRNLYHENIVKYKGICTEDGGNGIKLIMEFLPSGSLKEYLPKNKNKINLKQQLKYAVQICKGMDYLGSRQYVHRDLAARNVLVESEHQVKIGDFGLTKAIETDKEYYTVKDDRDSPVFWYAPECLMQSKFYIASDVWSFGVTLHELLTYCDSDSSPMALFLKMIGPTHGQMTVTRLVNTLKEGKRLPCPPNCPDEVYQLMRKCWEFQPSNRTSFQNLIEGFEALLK
Assay method text: In vitro JAK kinase assay (HTRF, phosphorylation of a biotinylated peptide), JAK1
Type: biochemical
Experimental conditions: Table D1; read-out: JAK1 IC50
Readout type: pIC50
pIC50 here is simply -log10 of the concentration when that concentration is written in mol/L.

Lookup: Give recorded pIC50. N#Cc1ccc(C(=O)N2CCN(c3ccc4cc3CCc3cccc(c3)Nc3ncc(Cl)c(n3)N4)CC2)cc1 [Example D95, bis(trifluoroacetate)]
Found: 7.60

Lookup: Check the records and state pIC50 for Cc1csc(NC(=O)N2CCC(CCOc3ccc4cc3CCc3cncc(c3)Nc3ncc(Cl)c(n3)N4)CC2)c1 [Example D172, bis(trifluoroacetate)]
Found: 6.89

Lookup: Dear colleague, please send me the reported pIC50 for O=C(COc1ccc2cc1CCc1cncc(c1)Nc1ncc(Cl)c(n1)N2)N1CCC(c2cc(-c3cccs3)[nH]n2)CC1 [Example D257, tris(trifluoroacetate)] when you can.
Found: 7.20

====

Experimental system: human JAK1 (a.a. 837-1142) (Homo sapiens)
Construct: human JAK1 (a.a. 837-1142); His tag (N); made in house; host or cells: insect cells (baculovirus)
Assay method text: In vitro JAK kinase assay (HTRF, phosphorylation of a biotinylated peptide), JAK1
Format: biochemical
Experimental conditions: method AA1 (90 μM ATP) or AA2 (1000 μM ATP), not stated per value; read-out: JAK1 IC50
Where a name gives a salt, the structure may show the parent alone.
Answer each item with its documented IC50.
Note: unit nM is implicit; provide only the numeric part.

Lookup: Dear colleague, please send me the reported IC50 for Cn1ccc2c(NC(=O)N3CCC(C(=O)Nc4ccc5cc4CCc4cccc(c4)Nc4ncc(Cl)c(n4)N5)CC3)cccc21 [Example A41, trifluoroacetate] when you can.
Found: 5.8

Lookup: Annotate the compound COc1cccc(S(=O)(=O)N2CCC(CC(=O)Nc3ccc4cc3CCc3cncc(c3)Nc3ncc(Cl)c(n3)N4)CC2)c1 [Example A196, bis(trifluoroacetate)] with its measured IC50.
Found: 15

Lookup: Complete the entry with IC50 for O=C(CC1CCN(C(=O)c2ccc(F)cc2F)CC1)Nc1ccc2cc1CCc1cncc(c1)Nc1ncc(Cl)c(n1)N2 [Example A194, bis(trifluoroacetate)]
Found: 7.3

Lookup: Dear colleague, please send me the reported IC50 for `O=C(COc1ccc2cc1CCc1cccc(c1)Nc1ncc(Cl)c(n1)N2)N1CCN(C(=O)Nc2ccc(Cl)nc2)CC1` when you can.
Found: 14

Lookup: Indicate its recorded IC50; the compound in question is CN(C)S(=O)(=O)N1CCC(CC(=O)Nc2ccc3cc2CCc2cncc(c2)Nc2ncc(Cl)c(n2)N3)CC1 [Example A96, bis(trifluoroacetate)]
Found: 4.5

Lookup: Identify measured IC50 corresponding to Cn1cc(C(=O)N2CCC(CC(=O)Nc3ccc4cc3CCc3cncc(c3)Nc3ncc(Cl)c(n3)N4)CC2)cn1 [Example A129, bis(trifluoroacetate)]
Found: 12

====

Experimental system: human JAK1 (a.a. 837-1142) (Homo sapiens)
Construct: human JAK1 (a.a. 837-1142); His tag (N); made in house; host or cells: insect cells (baculovirus)
Assay method text: In vitro JAK kinase assay (HTRF, phosphorylation of a biotinylated peptide), JAK1
Assay type: biochemical
Experimental conditions: Table B1; read-out: JAK1 IC50
pIC50: −log10 of the molar value. Where a name gives a salt, the structure may show the parent alone.
Rule: True for pIC50 not less than 8, False for anything less.

Lookup: Exam item: decide whether the reported pIC50 for O=C(Nc1cccc(Cl)c1)Nc1ccc2cc1CCc1cccc(c1)Nc1ncc(Cl)c(n1)N2 [Example B85, trifluoroacetate] is at least 8.
Found: True

Lookup: In plain terms: is recorded pIC50 at least 8 for O=C(Nc1ccc2cc1CCc1cccc(c1)Nc1ncc(Cl)c(n1)N2)N[C@H]1CCNC1 [Example B167, bis(trifluoroacetate)] ?
Found: True

Lookup: Record Cn1ccc(S(=O)(=O)NCCNC(=O)Nc2ccc3cc2CCc2cccc(c2)Nc2ncc(Cl)c(n2)N3)n1 [Example B332, trifluoroacetate] ; criterion: pIC50 no lower than 8. Met?
Found: True

Lookup: Given O=C(Nc1ccc2cc1CCc1cccc(c1)Nc1ncc(Cl)c(n1)N2)c1ccoc1 [Example B59, trifluoroacetate] , state whether its pIC50 is at least 8.
Found: True

Lookup: Please tell me: is the compound CC(C)(C)C(=O)Nc1ccc2cc1CCc1cccc(c1)Nc1ncc(Cl)c(n1)N2 [Example B58, trifluoroacetate] at or over 8 in terms of pIC50?
Found: False

Lookup: Check the entry NS(=O)(=O)c1cc2cc(c1)Nc1nc(ncc1Br)Nc1cccc(c1)CC2 [Example B18, trifluoroacetate] : does pIC50 equal or exceed 8?
Found: False

Lookup: Reported pIC50 at or above 8? O=C(Nc1cccc(Cl)c1)c1cc2cc(c1)Nc1nc(ncc1Cl)Nc1cccc(c1)CC2 [Example B13, trifluoroacetate]
Found: False
